# target system: T1, Anti-CD28 Fab (SEQ ID NOs: 202, 203)
# T1 construct: biotinylated and captured on neutravidin coated plates in the phage ELISA
# T1 sequence (VH, as listed by the source, chain 1 of 2): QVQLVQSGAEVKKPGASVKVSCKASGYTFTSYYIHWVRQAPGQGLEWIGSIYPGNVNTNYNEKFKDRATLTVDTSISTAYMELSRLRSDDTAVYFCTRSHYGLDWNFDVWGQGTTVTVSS
# T1 sequence (VL, as listed by the source, chain 2 of 2): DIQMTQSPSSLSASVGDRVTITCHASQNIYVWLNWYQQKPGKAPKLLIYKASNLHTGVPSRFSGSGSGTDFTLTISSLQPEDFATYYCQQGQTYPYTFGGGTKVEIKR
# assay protocol: phage ELISA, Fab on plate;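 note: crude clonal phage supernatants added to wells pretreated with blocking buffer with or without CD28 antigen, then bound phage read out via HRP-linked anti-M13 antibody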
Overview of reported Anti-CD28 Fab (SEQ ID NOs: 202, 203) signal across a group of binders:
quantity: Anti-CD28 Fab (SEQ ID NOs: 202, 203) signal

> print(dat)
                       binder  obs.value
1  YCLGHSWPYIHKCY [Phage-602]       1.43
2  YCDGHLPEYMQKCL [Phage-643]       1.35
3  YCEGHSQLYMAKCL [Phage-630]       1.37
4  YCEGHDVQYMQKCL [Phage-749]       1.06
